Some compounds, each annotated with its measured iNOS % down-regulation.
Tested on: iNOS
assay-details: qPCR gene expression in LPS-stimulated RAW264.7 macrophages, iNOS
Type: cell-based, mouse
condition-summary: 5 μM, 8 hour treatment
Record the value in %, omitting the unit from your answer.

{"compound": "C=CCN=C=S [Allyl]", "value-reported": 76}
{"compound": "S=C=NCCc1ccccc1 [PEITC, phenethylisothiocyanate]", "value-reported": 69.8}
{"compound": "CC(C)(C)N=C=S [Tert-butyl]", "value-reported": 3}
{"compound": "CC(C)N=C=S [Isopropyl]", "value-reported": 9}
{"compound": "CS(=O)(=O)c1ccc(C2=C(c3ccccc3)C(=O)OC2)cc1 [rofecoxib]", "value-reported": 37}

Shifting focus to the compound that follows.
What value of measured iNOS % down-regulation is listed for S=C=Nc1ccccc1 [Phenyl] ? 31

---

Overview of recorded COX2 % down-regulation for various compounds
Test system: COX2
assay-details: qPCR gene expression in LPS-stimulated RAW264.7 macrophages, COX2
Format: cell-based, mouse
condition-summary: 10 μM, 8 hour treatment
Give the number; % is assumed, so skip it.

Some entries whose results are on file:
{"compound": "CS(=O)(=O)c1ccc(C2=C(c3ccccc3)C(=O)OC2)cc1", "quantity-measured": "COX2 % down-regulation", "endpoint-unit": "%", "value-reported": 22}
{"compound": "S=C=NCCc1ccccc1 [PEITC, phenethylisothiocyanate]", "quantity-measured": "COX2 % down-regulation", "endpoint-unit": "%", "value-reported": 28.3}

Next:
Bench note: what COX2 % down-regulation did `S=C=Nc1ccccc1` show? 3
